Just for reference, patent US11407771B2 is where these values come from.

- system tested: MAPK13 (Homo sapiens (Human), UniProt O15264)
- Sequence (O15264 whole entry): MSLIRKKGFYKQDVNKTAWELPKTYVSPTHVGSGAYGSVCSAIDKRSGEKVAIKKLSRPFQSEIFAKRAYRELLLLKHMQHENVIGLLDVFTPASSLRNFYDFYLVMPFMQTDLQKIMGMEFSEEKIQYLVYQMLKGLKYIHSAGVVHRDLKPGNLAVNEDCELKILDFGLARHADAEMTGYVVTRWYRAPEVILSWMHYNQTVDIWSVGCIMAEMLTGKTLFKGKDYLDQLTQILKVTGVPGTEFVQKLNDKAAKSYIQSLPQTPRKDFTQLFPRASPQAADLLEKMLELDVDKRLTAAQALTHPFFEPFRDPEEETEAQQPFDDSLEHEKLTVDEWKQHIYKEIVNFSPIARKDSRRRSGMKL
- condition summary: read-out: MAPK13 inhibition
pIC50: −log10 of the molar value.
Exercise: state measured pIC50 for each of the molecules provided.

Consider the reported pIC50 for these molecules:
1) Cc1ccc(-n2nc(C(C)(C)C)cc2NC(=O)Nc2ccc(Oc3ccncc3C)cc2F)cc1 ... > 6.60
2) CC(C)(C)c1ccc(Cl)c(NC(=O)Nc2ccc(Oc3ccnc(N)c3)cc2F)c1 ... < 6.00
3) CCOC(=O)Nc1cc(CCc2cnc(NC(=O)Nc3cc(C(C)(C)C)on3)s2)ccn1 ... > 6.60

Batch lookup, pIC50 per entry.
1. COC(=O)Nc1cc(Oc2ccc(NC(=O)Nc3cc(C4(C)COC4)nn3-c3ccc(C)cc3)cc2)ccn1
2. CC(=O)Nc1cc(COc2ccc(NC(=O)Nc3cc(C(C)(C)C)nn3-c3ccc(C)cc3)c(F)c2)ccn1
3. CC(C)(C)c1cc(NC(=O)Nc2ccc(CCc3ccnc(NC(=O)C4CC4)c3)cc2F)n(CC2CC2)n1
4. CC(=O)Nc1cc(CCc2ccc(NC(=O)Nc3cc(C(F)(F)F)ccc3F)c(F)c2)ccn1

Solution:
["> 6.60", "> 6.60", "< 6.00", "< 6.00"]
